B1: HEEH_KT_rd6_0007 (parent)
chain: SIEEEIKKAEEAKEKGKTFIHGDFVATTEELLDELLKRLRKKL

Variants of: B1
Test: folding stability dG (cDNA display proteolysis); higher = more stable
Conditions: PBS, room temperature
Could you label it satisfied if measured folding stability dG is 1 kcal/mol or higher, and not satisfied otherwise?

| MUTATION STRING | LABEL VALUE |
| --- | --- |
| A26D | not satisfied |
| V25A | satisfied |
| E30M | satisfied |
| I20H | not satisfied |
| K17T | satisfied |
| E11C | satisfied |
| T28P | not satisfied |
| E14H | satisfied |
| G22E | satisfied |
| G16P | not satisfied |
| T18P | satisfied |
| L39V | not satisfied |
| E34L | satisfied |
| D33K | satisfied |
| E14Q | satisfied |
| E34F | satisfied |
| I2L | satisfied |
| E3K | satisfied |
| S1K | satisfied |
| I2G | not satisfied |
| S1D | satisfied |
| I20A | satisfied |
| E3L | satisfied |
| L35M | not satisfied |
| K37A | satisfied |
| E10T | satisfied |
| F24K | not satisfied |
| E11K | not satisfied |
| K15G | satisfied |
| E3F | satisfied |
| E11G | not satisfied |
| L39H | not satisfied |
| E11R | not satisfied |
| E30S | satisfied |
| I20G | not satisfied |
| E5M | satisfied |
| G22P | not satisfied |
| E14K | satisfied |
| A12Q | not satisfied |
| R40W | satisfied |
| D23T | satisfied |
| D33F | satisfied |
| I6K | not satisfied |
